Values from ChEMBL document CHEMBL3988442

The following compounds are shown together with reported Percent Effect values.
- System Tested: Shiga toxin 2 (Escherichia coli O157:H7) (UniProt P09385+P09386)
- Procedure Text: E. coli 0.157:H7 Shiga Toxin SOP - stx2 screening assay
- Assay type: functional
- Set-up: scale not given: direction of the effect not stated beside the values
- Details: 30 µM
Experimental Endpoint: Percent Effect (%)

{"Smiles Input": "O=C(NCCN1CCc2ccccc2C1)c1scnc1Cl", "System Tested": "Shiga toxin 2 (Escherichia coli O157:H7) (UniProt P09385+P09386)", "Quantity Unit": "%", "Assay Value": -3.31}
{"Smiles Input": "Cc1cccc2c1cnn2CCCNC(=O)CCCC(=O)O", "System Tested": "Shiga toxin 2 (Escherichia coli O157:H7) (UniProt P09385+P09386)", "Quantity Unit": "%", "Assay Value": -61.8}
{"Smiles Input": "CCCC(=O)N1CCC(O)(Cn2c(CC)nc3ccccc3c2=O)CC1", "System Tested": "Shiga toxin 2 (Escherichia coli O157:H7) (UniProt P09385+P09386)", "Quantity Unit": "%", "Assay Value": 0.775}
{"Smiles Input": "CN1CCCC[C@@H]2[C@H]1[C@@H](c1ccccc1)CCN2C(=O)c1cnccn1", "System Tested": "Shiga toxin 2 (Escherichia coli O157:H7) (UniProt P09385+P09386)", "Quantity Unit": "%", "Assay Value": -18.3}

* * *

- System Tested: Shiga toxin 2 (Escherichia coli O157:H7) (UniProt P09385+P09386)
- Procedure Text: E. coli 0.157:H7 Shiga Toxin SOP - stx2 screening assay
- Format: functional
- Parameters: scale not given: direction of the effect not stated beside the values
- Details: 30 µM
Experimental Endpoint: Percent Effect (%)

{"Compound": "CCCc1cc(C(=O)N2CCOC(c3nc(-c4cccs4)no3)C2)no1 (configuration not stated)", "Assay Value": -10.2}
{"Compound": "Cc1ccc(CNS(=O)(=O)CC2=NC(=O)n3cccc3C2=O)cc1", "Assay Value": 4.1}
{"Compound": "CCOCC1CN(C(=O)C2=CCCC2)Cc2cnn(CC)c21 (configuration not stated)", "Assay Value": 3.46}
{"Compound": "Cc1ccc2oc(C(=O)N3CCCC(n4nc(C)cc4C)C3)cc2n1 (configuration not stated)", "Assay Value": 1.89}
{"Compound": "CC(C)(CNC(=O)CCOc1cccc(F)c1)C(N)=O", "Assay Value": 29.6}
{"Compound": "COc1ccccc1CC(=O)N1CCCC(n2nc(C)cc2C)C1 (configuration not stated)", "Assay Value": 10.9}
{"Compound": "COCCCn1ccnc1-c1cnc(OC)nc1", "Assay Value": -0.356}
{"Compound": "Cc1ncccc1OCC(=O)N1CCN[C@H]2CS(=O)(=O)C[C@H]21", "Assay Value": 11.7}
{"Compound": "CCc1nc(CC(=O)N2CCn3c(nnc3C(F)(F)F)C2)cs1", "Assay Value": 17.9}
{"Compound": "Cc1ccc2c(c1)OCCCC2NCc1nnc2n1CCCCC2 (configuration not stated)", "Assay Value": 3.72}
{"Compound": "Cn1ccc2ccnc(CC3CN(C(=O)C4CCC(F)(F)CC4)C3)c21", "Assay Value": -23.1}
{"Compound": "CS(=O)(=O)N1CCCC12CCCN(S(=O)(=O)c1ccc(F)cc1)C2 (configuration not stated)", "Assay Value": 7.82}
{"Compound": "COCCN1C(=O)[C@]2(CC[C@@H]3CN(C(=O)NC4CCCC4)C[C@@H]32)N=C1C", "Assay Value": -4.86}
{"Compound": "CN(Cc1ccco1)C(=O)CN1CCCC(Cn2cncn2)C1 (configuration not stated)", "Assay Value": -14.6}
{"Compound": "Cc1oc(C(=O)O)cc1S(=O)(=O)Nc1cc(Cl)ccc1F", "Assay Value": 17.5}
{"Compound": "Cc1ccc(C(=O)N2CCC3(CC2)CC(c2ccccc2)C(=O)N3)cn1 (configuration not stated)", "Assay Value": -10.4}
{"Compound": "Cn1ncc2c1CN(Cc1cccnc1)CC2COCC1CC1 (configuration not stated)", "Assay Value": -44.8}
{"Compound": "CCc1csc(C2CCCN(C(=O)c3ccnc(N(C)C)c3)C2)n1 (configuration not stated)", "Assay Value": -14.7}
{"Compound": "Cc1ccccc1CN1CCCN(C2CCOC2=O)CC1 (configuration not stated)", "Assay Value": 15}
{"Compound": "COCCn1ccc2cc(NC(C)=O)ccc21", "Assay Value": -9.31}
{"Compound": "CN(C)CCOCC1CN(CC2CCOCC2)Cc2nnn(C)c21 (configuration not stated)", "Assay Value": -12.4}
{"Compound": "Cn1cnnc1C1CCCN(C(=O)c2ccc3c(c2)OCCCO3)C1 (configuration not stated)", "Assay Value": 1.29}
{"Compound": "COc1ccc(C2CCCN2C(=O)c2cc3c([nH]c2=O)CCC3)cc1 (configuration not stated)", "Assay Value": -10}
{"Compound": "CCn1cc(CN(C)S(=O)(=O)c2cnn(CC)c2C)c(C)n1", "Assay Value": 3.32}
{"Compound": "Cc1noc([C@@H]2C[C@H]3OCC[C@H]3N(S(=O)(=O)c3cccnc3)C2)n1", "Assay Value": -21.9}
{"Compound": "O=C(c1cnccn1)N1CCN(Cc2ccncc2)c2ncccc2C1", "Assay Value": -1.31}
{"Compound": "Cc1nc(CN2CCCC(CCc3ccc(F)cc3F)C2)c[nH]1 (configuration not stated)", "Assay Value": -3.15}
{"Compound": "CCOC(=O)C1CCN(C(=O)Cn2ccc3cc(Br)ccc32)CC1", "Assay Value": -21.9}
{"Compound": "CC(=O)NC(C)c1ccc(OCC2CC2)c(F)c1 (configuration not stated)", "Assay Value": 4.12}
{"Compound": "COc1cccc(OCC(=O)NS(=O)(=O)c2ccc(C)s2)c1", "Assay Value": -6.18}
{"Compound": "O=C(CCc1nccs1)N1CCCC(N2CCNC2=O)C1 (configuration not stated)", "Assay Value": -8.24}
{"Compound": "Cc1nc(C)c(CC(=O)N2C[C@@H]3CC[C@H](C2)N(CC2CCC2)C3)c(=O)[nH]1", "Assay Value": 5.33}
{"Compound": "Cc1cnn(CC2CCCN2C(=O)c2cnc3n[nH]c(C)c3c2)c1 (configuration not stated)", "Assay Value": -40.6}
{"Compound": "CC(C)n1ccnc1C1CCN(Cc2ccc(Cl)s2)CC1", "Assay Value": -48.4}
{"Compound": "NC(=O)c1cnn2c1NCC(CNCCCOc1ccccc1F)C2 (configuration not stated)", "Assay Value": 17.4}
{"Compound": "CN(C)CCN1CCO[C@H]2CN(Cc3cnn(C)c3)C[C@H]21", "Assay Value": -7.4}
{"Compound": "O=C(NCCn1ccnc1)c1ccn(-c2cccc(F)c2)n1", "Assay Value": 0.0864}
